Data credit: patent US4874773A

Test system: isolated heart
Assay: Experiment 2-2 Activity onto the isolated heart (with duration)
Parameters: species or system Japanese white rabbit
Settings: Oryctolagus cuniculus; 1 μg/heart; read-out: Reducing rate of heart pulse
Procedure: Japanese white rabbit (weighing 2.2-2.5 kg) was anesthetized by introvenous injection of nembutal (20 mg/kg) and then sacrificed by bleeding from common carotid artery. […] The activity was measured in the same manner as described in Experiment 2-1 except that in some test compounds, the dose was in 1 μg/heart. Besides, the duration of the activity was evaluated by counting the time until the coronary perfusion volume became to the initial level before the administration of the test compound.

| Compound | inhibition at 1 µg/heart |
| --- | --- |
| C#CCNC(=O)C1=C(C)NC(C)=C(C(=O)OCCCCCCCCC)C1c1ccccc1[N+](=O)[O-] (centres unmarked) [Example 79] | 30% |
| COC(=O)C1=C(C)NC(C)=C(C(=O)NC2CCCC2)C1c1ccccc1[N+](=O)[O-] (centres unmarked) [Example 84] | 20% |
| C#CCNC(=O)C1=C(C)NC(C)=C(C(=O)OCCCCCCCC)C1c1ccccc1[N+](=O)[O-] (centres unmarked) [Example 78] | 10% |
| CCCCCCCCCOC(=O)C1=C(C)NC(C)=C(C(=O)NC2CCCC2)C1c1ccccc1[N+](=O)[O-] (centres unmarked) [Example 87] | 5% |
| CCCCCCCCOC(=O)C1=C(C)NC(C)=C(C(=O)NC2CCCC2)C1c1ccccc1[N+](=O)[O-] (centres unmarked) [Example 86] | 20% |
